Biological target: Cytochrome P450 2D6 (Homo sapiens)
Experiment: Cytochrome panel assay with activity outcomes
Details: recombinant CYP, pro-luciferin dealkylation, luminescence, p450-cyp2d6; series mostly up to 57.1 µM
The whole screen tested about 16,000 compounds, of which about 2,600 (16%) were called active. Not shown: some 20% with an inconclusive outcome. The call rests on the fitted dose curve; in most records, active means well fitted curve in the direction sought with a large enough effect; inconclusive means small, poorly fitted or top-dose-only effect, or effect the other way; inactive means no such curve, though single readings can be large or run the other way. A selection follows.
Classes used: active, inactive

>  <COMPOUND>
CO/N=C(\C(=O)N[C@@H]1C(=O)N2C(C(=O)[O-])=C(C[N+]3(C)CCCC3)CS[C@@H]12)c1csc(N)n1

>  <SYSTEM>
Cytochrome P450 2D6 (Homo sapiens)

>  <QUALITATIVE_LABEL>
inactive

$$$$
>  <COMPOUND>
C=CCSc1ccsc1C(=O)O

>  <SYSTEM>
Cytochrome P450 2D6 (Homo sapiens)

>  <QUALITATIVE_LABEL>
inactive

$$$$
>  <COMPOUND>
COC(=O)[C@@]1(Cc2ccc(F)cc2)[C@@H]2[C@@H](CC(=O)[C@H]2CC(=O)C(=O)N(C)C)CN1C(=O)c1ccccc1

>  <SYSTEM>
Cytochrome P450 2D6 (Homo sapiens)

>  <QUALITATIVE_LABEL>
inactive

$$$$
>  <COMPOUND>
CC(=O)c1ccc(N2CCC(c3cc(-c4ccc(Cl)cc4)n[nH]3)CC2)c([N+](=O)[O-])c1

>  <SYSTEM>
Cytochrome P450 2D6 (Homo sapiens)

>  <QUALITATIVE_LABEL>
inactive

$$$$
>  <COMPOUND>
Cc1ccc(NC(=O)NNS(=O)(=O)c2ccc(Br)cc2)cc1

>  <SYSTEM>
Cytochrome P450 2D6 (Homo sapiens)

>  <QUALITATIVE_LABEL>
inactive

$$$$
>  <COMPOUND>
Cc1ccc(CN2CC34C=CC(O3)C(C(=O)NCc3ccco3)C4C2=O)cc1 (centres undefined)

>  <SYSTEM>
Cytochrome P450 2D6 (Homo sapiens)

>  <QUALITATIVE_LABEL>
inactive

$$$$
>  <COMPOUND>
CCOC(=O)c1ccccc1NC(=O)CSc1cccc[n+]1[O-]

>  <SYSTEM>
Cytochrome P450 2D6 (Homo sapiens)

>  <QUALITATIVE_LABEL>
inactive

$$$$
>  <COMPOUND>
COc1cc(C(=O)Nc2nc3ccc4nc(C)sc4c3s2)cc(OC)c1OC

>  <SYSTEM>
Cytochrome P450 2D6 (Homo sapiens)

>  <QUALITATIVE_LABEL>
inactive

$$$$
>  <COMPOUND>
Cc1ccc(CN2CC34C=CC(O3)C(C(=O)NCc3ccc5c(c3)OCO5)C4C2=O)cc1 (centres undefined)

>  <SYSTEM>
Cytochrome P450 2D6 (Homo sapiens)

>  <QUALITATIVE_LABEL>
active

$$$$
